- TARGET_DESC: FPTase (H-Ras substrate) (UniProt P29702+P49355)
- PROCEDURE_SUMMARY: in vitro FTase Inhibition Assay, H-Ras as substrate for farnesylation
- STATED_CONDITIONS: H-Ras used as substrate for farnesylation

COMPOUND: Cc1ccc([N+](=O)[O-])cc1C#CCCCC1(S(=O)(=O)c2cccc3ccccc23)SC(=O)NC1=O (stereo not drawn)
IC50 [nM]: 90
--
COMPOUND: COc1ccc(S(=O)(=O)C2(CCCC#Cc3cc(NC(=O)OC(C)(C)C)ccc3C)SC(=O)NC2=O)cc1 (single isomer, unassigned; less polar) [Example 222]
IC50 [nM]: 3.3

* * *

- TARGET_DESC: FPTase (K-Ras substrate) (UniProt P29702+P49355)
- PROCEDURE_SUMMARY: in vitro FTase Inhibition Assay, K-Ras as substrate for farnesylation
- STATED_CONDITIONS: K-Ras used as substrate for farnesylation
pIC50: −log10 of the molar value.
PARAMETER_MEASURED: pIC50

COMPOUND: COc1ccc(S(=O)(=O)C2(CCCC#Cc3cccc([N+](=O)[O-])c3)SC(=O)NC2=O)cc1 (centres unmarked)
PARAMETER_MEASURED: pIC50
MEASURED: 5.72

COMPOUND: Cc1ccc(S(=O)(=O)C2(CC#Cc3ccc(-c4ccccc4)cc3)SC(=O)NC2=O)cc1 (centres unmarked)
PARAMETER_MEASURED: pIC50
MEASURED: 5.74

COMPOUND: COc1ccc(S(=O)(=O)C2(CC#Cc3ccc(-c4ccccc4)cc3)SC(=O)NC2=O)cc1 (centres unmarked)
PARAMETER_MEASURED: pIC50
MEASURED: 5.48

COMPOUND: COc1ccc(S(=O)(=O)C2(CCCC#Cc3cccs3)SC(=O)NC2=O)cc1 (centres unmarked)
PARAMETER_MEASURED: pIC50
MEASURED: 5.28

COMPOUND: COc1ccc(S(=O)(=O)C2(CCCC#Cc3cccc(Cl)c3)SC(=O)NC2=O)cc1 (centres unmarked)
PARAMETER_MEASURED: pIC50
MEASURED: 5.85

* * *

- TARGET_DESC: FPTase (H-Ras substrate) (UniProt P29702+P49355)
- PROCEDURE_SUMMARY: in vitro FTase Inhibition Assay, H-Ras as substrate for farnesylation
- STATED_CONDITIONS: H-Ras used as substrate for farnesylation
PARAMETER_MEASURED: IC50 (nM)

COMPOUND: Cc1ccc(S(=O)(=O)C2(CC#Cc3ccc(-c4ccccc4)cc3)SC(=O)NC2=O)cc1 (stereo not drawn) [Example 169]
PARAMETER_MEASURED: IC50
MEASURED: 100
//
COMPOUND: Cc1ccc(S(=O)(=O)C2(CC#Cc3ccc(Oc4ccccc4)cc3)SC(=O)NC2=O)cc1 (stereo not drawn) [Example 170]
PARAMETER_MEASURED: IC50
MEASURED: 380
//
COMPOUND: COc1ccc(S(=O)(=O)C2(CC#Cc3cccnc3)SC(=O)NC2=O)cc1 (stereo not drawn) [Example 167]
PARAMETER_MEASURED: IC50
MEASURED: 1500
//
COMPOUND: COc1ccc(S(=O)(=O)C2(CCCC#Cc3cccc(N)c3)SC(=O)NC2=O)cc1 (stereo not drawn) [Example 220]
PARAMETER_MEASURED: IC50
MEASURED: 90
//
COMPOUND: COc1ccc(S(=O)(=O)C2(CCCC#Cc3ccc(-n4cccc4)cc3)SC(=O)NC2=O)cc1 (stereo not drawn) [Example 161]
PARAMETER_MEASURED: IC50
MEASURED: 900
//
COMPOUND: COc1ccc(S(=O)(=O)C2(CCCC#Cc3ccc(Cl)cc3)SC(=O)N(CCCn3ccnc3)C2=O)cc1 (stereo not drawn) [Example 233]
PARAMETER_MEASURED: IC50
MEASURED: 2900

* * *

// reported IC50 for each item listed
- TARGET_DESC: FPTase (K-Ras substrate) (UniProt P29702+P49355)
- PROCEDURE_SUMMARY: in vitro FTase Inhibition Assay, K-Ras as substrate for farnesylation
- STATED_CONDITIONS: K-Ras used as substrate for farnesylation
PARAMETER_MEASURED: IC50

COMPOUND: CCCCOC(=O)Nc1ccc(C)c(C#CCCCC2(S(=O)(=O)c3ccc(OC)cc3)SC(=O)NC2=O)c1 (centres unmarked) [Example 181]
PARAMETER_MEASURED: IC50
MEASURED: 100 to 130 nM
//
COMPOUND: COc1ccc(S(=O)(=O)C2(CCCC#Cc3cc(NC(=O)OC(C)(C)C)ccc3C)SC(=O)NC2=O)cc1 (centres unmarked) [Example 150]
PARAMETER_MEASURED: IC50
MEASURED: 16 to 68 nM
//
COMPOUND: Cc1ccc(S(=O)(=O)C2(CCCC#Cc3ccc(Cl)cc3)SC(=O)NC2=O)cc1 (centres unmarked) [Example 103]
PARAMETER_MEASURED: IC50
MEASURED: 900 to 10000 nM
//
COMPOUND: O=C1NC(=O)C(CCCC#Cc2ccc(Cl)cc2)(S(=O)(=O)c2ccc(I)cc2)S1 (centres unmarked) [Example 104]
PARAMETER_MEASURED: IC50
MEASURED: 230 to 900 nM
//
COMPOUND: CCCCOC(=O)Nc1ccc(C)c(C#CCCCC2(S(=O)(=O)c3ccc(OC)cc3)SC(=O)N(C(=O)OCCCC)C2=O)c1 (centres unmarked) [Example 231]
PARAMETER_MEASURED: IC50
MEASURED: 100 to 1000 nM
//
COMPOUND: O=C1NC(=O)C(CCCC#Cc2ccc(Cl)cc2)(S(=O)(=O)c2cccc3cccnc23)S1 (centres unmarked) [Example 109]
PARAMETER_MEASURED: IC50
MEASURED: 1400 to 2100 nM
//
COMPOUND: COc1ccc(S(=O)(=O)C2(CCCC#Cc3ccc(Cl)cc3)SC(=O)NC2=O)cc1 (centres unmarked) [Example 97]
PARAMETER_MEASURED: IC50
MEASURED: 3500 to 5500 nM
//
COMPOUND: Cc1ccc(C#CCCCC2(S(=O)(=O)c3ccc(I)cc3)SC(=O)NC2=O)c(C)c1 (centres unmarked) [Example 137]
PARAMETER_MEASURED: IC50
MEASURED: 37 to 800 nM
//
COMPOUND: COc1ccc(S(=O)(=O)C2(CCCC#Cc3ccc([N+](=O)[O-])cc3C)SC(=O)NC2=O)cc1 (centres unmarked) [Example 130]
PARAMETER_MEASURED: IC50
MEASURED: 320 to 1000 nM
//
COMPOUND: Cc1ccc(Cl)cc1C#CCCCC1(S(=O)(=O)c2ccc(OC(F)(F)F)cc2)SC(=O)NC1=O (centres unmarked) [Example 139]
PARAMETER_MEASURED: IC50
MEASURED: 600 to 5000 nM
//
COMPOUND: COc1ccc(S(=O)(=O)C2(CCCC#Cc3cc([N+](=O)[O-])ccc3C)SC(=O)NC2=O)cc1 (centres unmarked) [Example 122]
PARAMETER_MEASURED: IC50
MEASURED: 230 to 1000 nM
//
COMPOUND: Cc1ccc([N+](=O)[O-])cc1C#CCCCC1(S(=O)(=O)c2ccc(I)cc2)SC(=O)NC1=O (centres unmarked) [Example 125]
PARAMETER_MEASURED: IC50
MEASURED: 400 nM
//
COMPOUND: O=C1NC(=O)C(CCCC#Cc2cc(Cl)ccc2Cl)(S(=O)(=O)c2ccc(I)cc2)S1 (centres unmarked) [Example 115]
PARAMETER_MEASURED: IC50
MEASURED: 160 to 230 nM
//
COMPOUND: COc1ccc(S(=O)(=O)C2(CCCC#Cc3cc(NC(=O)Oc4ccc(Cl)cc4)ccc3C)SC(=O)NC2=O)cc1 (centres unmarked) [Example 177]
PARAMETER_MEASURED: IC50
MEASURED: 86 to 100 nM
//
COMPOUND: Cc1ccc(NC(=O)OC(C)(C)C)cc1C#CCCCC1(S(=O)(=O)c2ccc(I)cc2)SC(=O)NC1=O (centres unmarked) [Example 148]
PARAMETER_MEASURED: IC50
MEASURED: 23 to 31 nM
//
COMPOUND: COc1ccc(S(=O)(=O)C2(CCCC#Cc3cc(Cl)ccc3Cl)SC(=O)NC2=O)cc1 (centres unmarked) [Example 114]
PARAMETER_MEASURED: IC50
MEASURED: 32 to 320 nM
//
COMPOUND: COc1ccc(S(=O)(=O)C2(CCCC#Cc3ccc([N+](=O)[O-])cc3OC)SC(=O)NC2=O)cc1 (centres unmarked) [Example 132]
PARAMETER_MEASURED: IC50
MEASURED: 210 to 1000 nM
//
COMPOUND: Cc1ccc(S(=O)(=O)C2(CCCC#Cc3ccc(S(C)(=O)=O)cc3)SC(=O)NC2=O)cc1 (centres unmarked) [Example 159]
PARAMETER_MEASURED: IC50
MEASURED: > 10000 nM
//
COMPOUND: Cc1ccc(C(=O)NC(C)(C)C)cc1C#CCCCC1(S(=O)(=O)c2ccc(I)cc2)SC(=O)NC1=O (centres unmarked) [Example 147]
PARAMETER_MEASURED: IC50
MEASURED: 80 to 100 nM
//
COMPOUND: CCCCOc1ccc(S(=O)(=O)C2(CCCC#Cc3ccc(Cl)cc3)SC(=O)NC2=O)cc1 (centres unmarked) [Example 112]
PARAMETER_MEASURED: IC50
MEASURED: 1400 to 1500 nM
//
COMPOUND: O=C1NC(=O)C(CCCC#Cc2ccc(Cl)cc2)(S(=O)(=O)c2ccc(Oc3ccccc3)cc2)S1 (centres unmarked) [Example 106]
PARAMETER_MEASURED: IC50
MEASURED: 1300 to 1700 nM
//
COMPOUND: Cc1ccc([N+](=O)[O-])cc1C#CCCCC1(S(=O)(=O)c2ccc(Oc3ccccc3)cc2)SC(=O)NC1=O (centres unmarked) [Example 124]
PARAMETER_MEASURED: IC50
MEASURED: 910 to 1300 nM
//
COMPOUND: COc1ccc(S(=O)(=O)C2(CCCC#Cc3ccc(OC(F)(F)F)cc3)SC(=O)NC2=O)cc1 (centres unmarked) [Example 154]
PARAMETER_MEASURED: IC50
MEASURED: 1000 to 2500 nM
